Tested on: FB
assay-method-text: Euclidean distance of Cell Painting phenotypic profile (signed KS, 77 features) to DMSO centroid (dimensionless distance); 5 or 10 uM (library dependent); higher = stronger phenotypic change vs DMSO (phenoactivity)
study-conditions: 48 h
Structures can show the parent of a compound that is named as a salt.
value-kind: Euclidean distance

# compound, quantitative-readout
rows = [
    ("CC(C)[C@H](NC(=O)[C@H](CC(=O)O)NC(=O)[C@H](CCCCN)NC(=O)[C@@H](N)CCCN=C(N)N)C(=O)N[C@@H](Cc1ccc(O)cc1)C(=O)O", 0.825),
    ("CC[C@@H](CO)NCCN[C@@H](CC)CO [Ethambutol 2HCl]", 0.73),
    ("CN(N=O)C(=O)NC1C(O)OC(CO)C(O)C1O (stereo not given) [Streptozotocin (STZ)]", 1.26),
    ("Nc1ccc(S(=O)(=O)Nc2ncccn2)cc1 [Sulfadiazine]", 1.03),
    ("CO/N=C(\\C(=O)N[C@@H]1C(=O)N2C(C(=O)O)=C(CSc3nnnn3C)CS[C@H]12)c1csc(N)n1 [Cefmenoxime hydrochloride]", 0.686),
    ("CC(COc1ccccc1)N(CCCl)Cc1ccccc1 (stereo not given) [Phenoxybenzamine HCl]", 0.978),
    ("Nc1nc(=O)c2nc(CNc3ccc(C(=O)N[C@@H](CCC(=O)O)C(=O)O)cc3)cnc2[nH]1", 0.817),
    ("Cc1[nH]c(/C=C2\\C(=O)Nc3ccc(S(=O)(=O)Cc4c(Cl)cccc4Cl)cc32)c(C)c1C(=O)N1CCC[C@@H]1CN1CCCC1", 2),
    ("Cc1csc(-c2nnc(Nc3ccc(Oc4ncccc4-c4ccnc(N)n4)cc3)c3ccccc23)c1", 2.44),
    ("COc1cc(Br)c(Nc2nc(-c3c(C)nc4ncccn34)cs2)c(Br)c1", 2.66),
    ("c1ccc(CN(CC2=NCCN2)c2ccccc2)cc1 [Antazoline HCl]", 1.02),
    ("O=c1cc(N2CCOCC2)oc2c(-c3cccc4c3sc3ccccc34)cccc12", 3.31),
    ("COc1cccc2cc(-c3nc([C@H]4CC[C@H](C(=O)O)CC4)n4ncnc(N)c34)[nH]c12", 3.76),
    ("CN1CCN(c2ccc(C(=O)Nc3n[nH]c4ccc(Cc5cc(F)cc(F)c5)cc34)c(NC3CCOCC3)c2)CC1 [Entrectinib (RXDX-101)]", 5.6),
    ("Cn1cc(CNCC2CCN(c3ncc(C(=O)NO)cn3)CC2)c2ccccc21", 3.5),
]

---

Test system: A549
assay-method-text: Euclidean distance of Cell Painting phenotypic profile (signed KS, 77 features) to DMSO centroid (dimensionless distance); 5 or 10 uM (library dependent); higher = stronger phenotypic change vs DMSO (phenoactivity)
study-conditions: 48 h
Counter-ions that a name gives are not always drawn.

# compound, Euclidean distance
data = [
    ("COc1cc2c(cc1OC)[C@H]1C[C@@H](OC(=O)[C@@H](N)C(C)C)[C@H](CC(C)C)CN1CC2 [Valbenazine tosylate]", 0.503),
    ("O=C(/C=C/c1ccc(O)c(O)c1)c1ccc(O)cc1O", 1.3),
    ("CCCCOC(=O)c1ccccc1Nc1cccc(C(F)(F)F)c1 [Ufenamate]", 0.505),
]

---

Tested on: DU145
assay-method-text: Euclidean distance of Cell Painting phenotypic profile (signed KS, 77 features) to DMSO centroid (dimensionless distance); 5 or 10 uM (library dependent); higher = stronger phenotypic change vs DMSO (phenoactivity)
study-conditions: 48 h
Structures can show the parent of a compound that is named as a salt.
value-kind: Euclidean distance

# molecule, quantitative-readout
data = [
    ("NCCCC[C@H](NC(=O)[C@@H](NC(=O)[C@H](Cc1c[nH]c2ccccc12)NC(=O)[C@H](CCCCN)NC(=O)[C@H](CCCCN)NC(=O)[C@H](Cc1c[nH]c2ccccc12)NC(=O)[C@H](Cc1c[nH]c2ccccc12)NC(=O)[C@H](CCCCN)NC(=O)[C@@H](N)CCCCN)C(c1ccccc1)c1ccccc1)C(N)=O", 1.35),
    ("COc1cc(C(=O)OCCCCNC(=N)N)cc(OC)c1O", 0.698),
    ("CN1CCc2cc3c(cc2C(=O)Cc2ccc4c(c2C1)OCO4)OCO3", 0.606),
    ("COCCCN1CCC(NC(=O)c2cc(Cl)c(N)c3c2OCC3)CC1 [Prucalopride Succinat]", 0.699),
    ("Cc1[nH]c2ccccc2c1CCNCc1ccc(/C=C/C(=O)NO)cc1", 4.84),
    ("CC(S)C(=O)NCC(=O)O (configuration not stated)", 1.09),
    ("COc1cccc2cc(-c3nc([C@H]4CC[C@H](C(=O)O)CC4)n4ncnc(N)c34)[nH]c12", 1.44),
    ("NCCCCC(NC(=O)C1CCCN1C(=O)C1CSSCC(N)C(=O)NC(Cc2ccc(O)cc2)C(=O)NC(Cc2ccccc2)C(=O)NC(CCC(N)=O)C(=O)NC(CC(N)=O)C(=O)N1)C(=O)NCC(N)=O (configuration not stated) [Lypressin Acetate]", 1.08),
    ("CCCCOC(=O)c1ccccc1Nc1cccc(C(F)(F)F)c1 [Ufenamate]", 1.4),
    ("CC(COc1ccccc1Cc1ccccc1)N1CCCCC1 (configuration not stated) [Benproperine phosphate]", 1.72),
    ("CN1CCN(CCCN2c3ccccc3Sc3ccc(Cl)cc32)CC1 [Prochlorperazine dimaleate salt]", 1.63),
    ("N[C@@H](CSCCCO)C(=O)O", 0.71),
    ("Nc1nc2[nH]cc(CCc3ccc(C(=O)N[C@@H](CCC(=O)O)C(=O)O)cc3)c2c(=O)[nH]1 [Pemetrexed]", 1.14),
    ("CCOc1cc(CC(=O)N[C@@H](CC(C)C)c2ccccc2N2CCCCC2)ccc1C(=O)O [Repaglinide]", 1.26),
    ("COc1ccc(-c2nc3cc(C4=NNC(=O)CC4C)ccc3[nH]2)cc1 (configuration not stated)", 1.01),
    ("CCN(CCO)CCCC(C)Nc1ccnc2cc(Cl)ccc12 (configuration not stated) [Hydroxychloroquine Sulfate]", 2.6),
    ("O=C(Nc1ccc([N+](=O)[O-])cc1Cl)c1cc(Cl)ccc1O [Niclosamide]", 2.1),
]
